Target: HA of A/Hong Kong/8/68 (H3N2) (influenza A virus)
Experiment: cell-based or functional assay
reported.metric: Neutralization IC50, H3-HK68 (µg/mL)

binder	reported.metric	measured
Antibody 11 (antibody, V domains shown) VH: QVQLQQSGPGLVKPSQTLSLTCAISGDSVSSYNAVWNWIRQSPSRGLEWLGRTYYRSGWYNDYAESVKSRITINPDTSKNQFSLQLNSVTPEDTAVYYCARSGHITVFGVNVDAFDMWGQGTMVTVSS VL: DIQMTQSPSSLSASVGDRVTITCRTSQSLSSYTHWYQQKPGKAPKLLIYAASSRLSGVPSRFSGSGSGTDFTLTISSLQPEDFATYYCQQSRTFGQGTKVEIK	Neutralization IC50, H3-HK68	0.46
Antibody 3 (antibody, V domains shown) VH: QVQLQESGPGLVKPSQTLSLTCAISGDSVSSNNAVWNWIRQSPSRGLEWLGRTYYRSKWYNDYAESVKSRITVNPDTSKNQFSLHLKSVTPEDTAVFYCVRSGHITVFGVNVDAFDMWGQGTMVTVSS VL: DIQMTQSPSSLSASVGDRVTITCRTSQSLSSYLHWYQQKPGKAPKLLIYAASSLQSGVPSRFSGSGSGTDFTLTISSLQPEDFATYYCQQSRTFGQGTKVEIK	Neutralization IC50, H3-HK68	1.37
Antibody 14 (antibody, V domains shown) VH: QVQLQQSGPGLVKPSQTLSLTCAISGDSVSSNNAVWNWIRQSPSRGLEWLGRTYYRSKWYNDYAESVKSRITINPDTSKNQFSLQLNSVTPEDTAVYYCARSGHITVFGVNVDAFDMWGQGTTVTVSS VL: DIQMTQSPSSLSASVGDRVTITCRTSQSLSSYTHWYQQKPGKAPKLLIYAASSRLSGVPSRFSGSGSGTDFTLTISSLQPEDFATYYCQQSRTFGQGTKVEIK	Neutralization IC50, H3-HK68	0.65
Antibody 13 (antibody, V domains shown) VH: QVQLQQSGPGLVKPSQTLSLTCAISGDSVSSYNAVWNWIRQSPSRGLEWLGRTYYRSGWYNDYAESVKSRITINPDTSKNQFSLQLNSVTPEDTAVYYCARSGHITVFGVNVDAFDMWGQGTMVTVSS VL: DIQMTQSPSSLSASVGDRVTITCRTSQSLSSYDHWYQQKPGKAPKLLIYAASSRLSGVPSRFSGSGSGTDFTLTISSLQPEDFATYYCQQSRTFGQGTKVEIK	Neutralization IC50, H3-HK68	0.44
Antibody 15 (antibody, V domains shown) VH: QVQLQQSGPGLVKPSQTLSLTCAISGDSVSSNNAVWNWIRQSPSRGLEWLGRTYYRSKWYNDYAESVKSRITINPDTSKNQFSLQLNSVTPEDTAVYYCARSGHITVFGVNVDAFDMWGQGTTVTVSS VL: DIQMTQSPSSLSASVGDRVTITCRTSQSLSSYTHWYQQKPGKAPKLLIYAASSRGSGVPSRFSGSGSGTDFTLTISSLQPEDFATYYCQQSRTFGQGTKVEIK	Neutralization IC50, H3-HK68	0.5
Antibody 12 (antibody, V domains shown) VH: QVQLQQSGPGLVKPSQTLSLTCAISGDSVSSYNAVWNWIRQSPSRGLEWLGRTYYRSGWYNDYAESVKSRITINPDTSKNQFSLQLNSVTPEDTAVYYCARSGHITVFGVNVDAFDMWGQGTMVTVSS VL: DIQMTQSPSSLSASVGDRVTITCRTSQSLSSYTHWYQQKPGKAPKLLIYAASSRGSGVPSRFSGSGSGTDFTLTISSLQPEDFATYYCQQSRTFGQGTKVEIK	Neutralization IC50, H3-HK68	0.42
